tested on: NCI-H522 lung; assay: NCI tumour cell line growth inhibition, 48 h
Property: TGI; scope: individual compounds
I only need the number, in µM, no unit after it.

Below are worked cases with known answers.
CCOc1ccccc1NC(=O)CC1Sc2ccccc2NC1=O (stereo unspecified) | 73.7
Cc1ccc(Nc2nc3nc[nH]c3c(=O)[nH]2)cc1CO | 24.3
CC(=O)c1nc2ccccc2n1CCN1CCN(C)CC1 | 6.11
COc1ccc(/C=C/c2nnc(/C=C/c3ccc(OC)c(OC)c3)o2)cc1OC | 6.8

For this compound ( Cc1nc2cc([N+](=O)[O-])ccc2c(NCCCN(C)C)c1C ), measured TGI is 10.7

Sample C/C(=N\O)c1ccc2cc(Br)c3ccccc3c2c1 ; TGI observed: 33

====

test system: BT-549 breast; assay: NCI tumour cell line growth inhibition, 48 h
The following compounds are shown together with reported GI50 values.

COc1ccc(C2CC(c3cc(Cl)c(C)cc3O)=NN2c2ccc(S(N)(=O)=O)cc2)cc1OC (stereo not drawn) | 3.03 µM
Cn1cc(-c2nc3c(F)cc4[nH]ncc4c3c3c2CCCC3)c(C(F)(F)F)n1 | 2.62 µM

// moving on: another record for GI50
Query COc1ccc(Nc2nccc(Nc3ccc4[nH]ncc4c3)n2)cc1 on BT-549 breast; GI50 returned: 3.22 µM

====

// reported TGI per item
test system: SF-268 CNS; assay: NCI tumour cell line growth inhibition, 48 h

CCCC(c1nnnn1C1CCCCC1)N1CCN(C(=O)c2ccco2)CC1 (stereo not given) | > 100 µM
c1ccc(-c2c(-c3ccccc3)[n+](Cc3ccc4ccccc4c3)c(-c3cccc4ccccc34)n2Cc2ccc3ccccc3c2)cc1 | 1.76 µM
CN(C)C=Nc1ccc2[nH]c3ccccc3c2c1 | > 100 µM
Cc1ccc(-c2c(C#N)[n+](=O)c3cc(Cl)c(Cl)cc3n2[O-])cc1 | 18 µM
COc1cc2cccc(N=Cc3ccccc3Cl)c2cc1OC | > 100 µM

Item: Cc1ccc(NC(=O)OCC(COc2ccc(Cl)cc2)OC(=O)Nc2ccc(C)cc2)cc1 (stereo not given) | TGI: > 100 µM

The measured TGI associated with O=C1c2ccccc2-c2c1c(-c1ccc(O)cc1O)nc1ccc3ccccc3c21 reads > 100 µM

The reported TGI of the compound CC(C)OC(=O)C1=C2c3ncccc3C(=O)N2[C@@H](Cl)[C@@H](Cl)[C@@H]1Cl was > 100 µM

response.value for O=C(NNC(=O)c1ccccc1O)c1ccccc1O (field: TGI) = > 58.4 µM

Noted for COc1ccccc1N1C(=O)/C(=C\c2cc(OC)c(OC)c(OC)c2)SC1c1ccccc1 (stereo not given) : its TGI reads > 100 µM

====

test system: SF-295 CNS; experiment: NCI tumour cell line growth inhibition, 48 h
Test Readout: TGI

Below, each entry is followed by its recorded TGI result.
Cc1ccc(/C=N/Nc2ccccn2)s1 | > 100 µM
Cc1c2ccccc2cc2nc3ccccc3n12 | > 10 µM
CC(=O)OC1COC(N2CCc3ccccc32)C(OC(C)=O)C1OC(C)=O (configuration not stated) | > 100 µM

Sure, the documented TGI for COc1ccc(NC(=S)N/N=C/c2cccc(C)n2)cc1 is 40.3 µM

The reported value for NC(N)=NS(=O)(=O)c1ccc(Nc2c3ccccc3nc3c(C(=O)NNCCO)cccc23)cc1 in terms of TGI is > 1 µM

What the record says about Cc1cc2c([nH]1)CSc1cc(S(=O)(=O)c3ccccc3)c(=O)[nH]c1-2 : TGI is 8.09 µM

Memo: O=[N+]([O-])O , reported TGI: > 100 µM

Reported TGI of COc1cc(/C=N\O)cc(/C=N/O)c1O : 76.5 µM

Entry under test: COc1cc2cc3c4c(cc(OC)c(OC)c4c2cc1OC)CCN3 . Its TGI was > 100 µM

# TGI (compound: Cc1ccc(-c2c(C#N)[n+](=O)c3cc(Cl)c(Cl)cc3n2[O-])cc1 ) is 37.9 µM

The reported value for CC(=O)C(C)CCOC1(C)OCCC1C (configuration not stated) in terms of TGI is > 100 µM

For this compound ( N=[N+]=NC1C(O)C(CO)OC1n1cnc2c(N)ncnc21 (configuration not stated) ), measured TGI is > 100 µM

The measurements presented in this section are drawn from PubChem BioAssay (NCI).
